- Test system: SR leukemia
- experimental-details: NCI-60 one-dose screen, 48 h
- reported-conditions: 10 µM
About 83,000 compounds went through this panel and 20% of them were active in at least one assay; those are over-represented in the sample as a whole. The source made the active and inactive calls. The calls were made as follows: active = growth percent below 10; inactive = the rest.
Result category, one only: active, inactive

CC1(C)N=C(N)N=C(N)N1c1ccc(CNC(=O)Nc2ccc(S(=O)(=O)F)c(Cl)c2)c(Cl)c1
inactive
O=C(CI)Nc1ccc(Br)cc1
active
CCOCC1(CCc2ccccc2)C(=O)NC(=S)NC1=O
inactive
CCC(CC)(c1ccccc1)C(OC(N)=O)c1ccccc1 (stereo unspecified)
inactive
O=C(O)CC(Br)C(=O)CBr (stereo unspecified)
inactive
CCC(C)/C=C(C)/C=C/C(=O)c1c(O)c(-c2ccc(O)cc2)c[nH]c1=O (stereo unspecified)
inactive
n1nc(-c2nonc2-c2nn[nH]n2)n[nH]1
inactive
CCC[CH2][Sn]1([CH2]CCC)[O]C(=O)c2cccc([N+](=O)[O-])c2C(=O)[O]1
active
N#C[Se]CCCNS(=O)(=O)C1CC2C=CC1C2 (stereo unspecified)
active
Cc1cccc(N(C)c2cccc3c2C(=O)[Se]C3)c1C
active

Test call, this molecule: ClCCN(CCCl)c1ccc(/C=C\c2ccnc3ccccc23)cc1
inactive

Also need O=C(C(=O)N1CCCC1)c1cn(CCCCCn2cc(C(=O)C(=O)N3CCCC3)c3ccccc32)c2ccccc12 , thanks.
inactive

Also check C=CCN1C(=O)C(CC)(CCC(C)C)C(=O)NC1=S (stereo unspecified)
inactive

// repeat for COc1ccc(C(c2ccc(OC)cc2)C(Cl)(Cl)Cl)cc1 and report
inactive

Would you kindly repeat that for Nc1c(Br)cc([N+](=O)[O-])cc1[N+](=O)[O-] ?
inactive

Likewise for CC(C)N=C(NC(C)C)N1CC1 ?
inactive

Please do the same for CC(C)[C@]12O[C@H]1[C@@H]1O[C@]13[C@]1(O[C@H]1C[C@H]1C4=C(CC[C@@]13C)C(=O)OC4)[C@@H]2OC(=O)OC(C)(C)C as well.
active
